Assay: Selectivity index, ratio of CC50 for African green monkey Vero cells to EC50 for Zika virus GZ01/2016 infected in African green monkey Vero cells
Format: toxicity
Settings: read-out: Ratio CC50/EC50
READOUT_NAME: selectivity ratio
Give bare numbers.

*Q* Reported selectivity ratio, compound CC[C@H]1OC(=O)[C@H](C)[C@@H](O[C@H]2C[C@@](C)(OC)[C@@H](O)[C@H](C)O2)[C@H](C)[C@@H](O[C@@H]2O[C@H](C)C[C@H](N(C)C)[C@H]2O)[C@](C)(O)C[C@@H](C)CN(C)[C@H](C)[C@@H](O)[C@]1(C)O [AZITHROMYCIN] : ____
*A* 123

* * *

Test: Selectivity ratio of CC50 for human A549 cells to EC50 for Influenza A virus A/California/7/2009(H1N1) strain infected in A549 cells
Type: toxicity, cell-based
Conditions: read-out: Ratio CC50/EC50
READOUT_NAME: selectivity ratio

*Q* Look at this compound and give its reported selectivity ratio. CC[C@H]1OC(=O)[C@H](C)[C@@H](O[C@H]2C[C@@](C)(OC)[C@@H](O)[C@H](C)O2)[C@H](C)[C@@H](O[C@@H]2O[C@H](C)C[C@H](N(C)C)[C@H]2O)[C@](C)(O)C[C@@H](C)CN(C)[C@H](C)[C@@H](O)[C@]1(C)O [AZITHROMYCIN]
*A* > 8.8

* * *

Assay: Selectivity index, ratio of CC50 for African green monkey Vero cells to EC50 for Dengue virus 2 infected in African green monkey Vero cells
Type: toxicity
Conditions: read-out: Ratio CC50/EC50
READOUT_NAME: selectivity ratio
Numbers only.

*Q* Item `CC[C@H]1OC(=O)[C@H](C)[C@@H](O[C@H]2C[C@@](C)(OC)[C@@H](O)[C@H](C)O2)[C@H](C)[C@@H](O[C@@H]2O[C@H](C)C[C@H](N(C)C)[C@H]2O)[C@](C)(O)C[C@@H](C)CN(C)[C@H](C)[C@@H](O)[C@]1(C)O` has what recorded selectivity ratio?
*A* 218

* * *

Experiment: Selectivity index, ratio of CC50 for African green monkey Vero cells to EC50 for SARS-COV-2
Format: toxicity
Details: read-out: Ratio CC50/EC50
READOUT_NAME: selectivity ratio

*Q* Quick check: selectivity ratio of `CC[C@H]1OC(=O)[C@H](C)[C@@H](O[C@H]2C[C@@](C)(OC)[C@@H](O)[C@H](C)O2)[C@H](C)[C@@H](O[C@@H]2O[C@H](C)C[C@H](N(C)C)[C@H]2O)[C@](C)(O)C[C@@H](C)CN(C)[C@H](C)[C@@H](O)[C@]1(C)O` ?
*A* > 19

* * *

Test: Cytotoxicity against African green monkey Vero cells by Celltiter blue assay
Assay type: toxicity, cell-based
Conditions: chlorocebus sabaeus
READOUT_NAME: CC50

*Q* // lookup CC50 for `CC[C@H]1OC(=O)[C@H](C)[C@@H](O[C@H]2C[C@@](C)(OC)[C@@H](O)[C@H](C)O2)[C@H](C)[C@@H](O[C@@H]2O[C@H](C)C[C@H](N(C)C)[C@H]2O)[C@](C)(O)C[C@@H](C)CN(C)[C@H](C)[C@@H](O)[C@]1(C)O`
*A* > 40 µM
